Molecular target: T1, human SLC34A2 (human, UniProt O95436 1-690)
T1 construct: whole, on cells; also called human solute carrier 34 A2; NaPi2b
T1 sequence (looked up): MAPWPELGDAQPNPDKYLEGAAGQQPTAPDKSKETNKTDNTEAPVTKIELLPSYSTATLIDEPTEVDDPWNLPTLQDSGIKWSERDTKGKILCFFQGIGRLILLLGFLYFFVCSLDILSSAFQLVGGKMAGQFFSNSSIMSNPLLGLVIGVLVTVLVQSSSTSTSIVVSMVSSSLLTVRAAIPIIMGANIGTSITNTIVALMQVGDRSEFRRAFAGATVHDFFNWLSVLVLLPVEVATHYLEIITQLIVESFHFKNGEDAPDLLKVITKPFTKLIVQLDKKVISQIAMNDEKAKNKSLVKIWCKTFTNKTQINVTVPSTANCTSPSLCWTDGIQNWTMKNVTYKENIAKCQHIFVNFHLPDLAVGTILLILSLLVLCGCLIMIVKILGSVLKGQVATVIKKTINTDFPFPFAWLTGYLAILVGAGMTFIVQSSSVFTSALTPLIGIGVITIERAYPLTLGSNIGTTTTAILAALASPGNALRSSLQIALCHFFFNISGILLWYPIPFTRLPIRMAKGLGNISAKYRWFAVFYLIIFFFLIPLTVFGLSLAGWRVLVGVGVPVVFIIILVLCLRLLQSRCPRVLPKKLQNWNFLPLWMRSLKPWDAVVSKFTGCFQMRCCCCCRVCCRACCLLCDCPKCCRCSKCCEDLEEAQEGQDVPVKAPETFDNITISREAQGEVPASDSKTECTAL
Test: FACS, RMG-1 cells
Experimental: Based on the foregoing cell-based binding results, some of the chimeric antibodies were selected for further cell based binding on human SLC34A2 expressing cells using flow cytometry. RMG-1 cells were incubated with the selected chimeric antibodies (from 200 nM, 4 folds dilution, 8 points). […] Afterwards the cells were washed twice and analyzed by flow cytometry.
REPORTED_ENDPOINT: EC50 (nM)
Kindly provide the numeric value in nM only, without the unit symbol.

Could you share which EC50 value was measured for xi18G1H4 hIgG1 (antibody, V domains shown, chimeric, hIgG1) VH: QVQLQQPGAELVKPGASVRMSCKASAYTFTTYNLHWVKQTPGQGLEWIGAISPGNGVTSYNQKFRGKATLTADKSSSTAYMQLSSLTSEDSAVYYCARGYGYSVGAMDYWGQGTSVTVSS VL: DIQMTQTTSSLSASLGDRVNISCSASQGIGNFLNWYQQKPDGTVKLLIYYTSSLHSGVPPRFSGSGSGTDYSLTISNLEPEDIATYYCQQYHKLPLTFGAGTKLELK ?
7.91

Returns the measured EC50 for the input binder. Input: xi87H12B7 hIgG1 (antibody, V domains shown, chimeric, hIgG1) VH: QVQLQQPGAEVVRPGASVKMSCKASGYTFTSYIVHWVKQPPGQGLEWIGAIYPGNGDTSYIQKFKGRATLTADKSSSTVYMQLSSLTSEDSAVYYCARGHYYGSAAWFGFWGQGTLVTVSA VL: DILLTQSPAILSVSPGERVSFSCRASQNIGTSIHWYQQRTNDSPRLLMRYASESVSGIPSRFSGSGSGTDFTLSINSVESEDIADYYCQQSNTWPLTFGAGTKLELK
9.11

Please report the recorded EC50 for xi28G3C6B9 hIgG1 (antibody, V domains shown, chimeric, hIgG1) VH: QVQLQQPGAEVVKPGASVKMSCKASGYTFTSYIIHWVKQAPGQGLEWIGAIYPGNGDTSYSQRFKGKAKLTADKSSSTAYMQLNSLTSEDSVVYYCARGNNYGSPAWFGYWGQGTLVTVSA VL: DIVLTQSPVTLSVTPGDRVSLSCRASQSIGNFLYWYQQKSHESPRLLIKYASQSMSGIPSRFSGSGSGTDFTLSISRVETEDFGMYFCQQSNSWPVTFGAGTKLELK .
4.73

What measured EC50 goes with xi16E5D10 hIgG1 (antibody, V domains shown, chimeric, hIgG1) VH: QVQLQQPGAELVKPGASVMMSCKASGYTFSNHNLHWLKKTPGQGLDWIGAIYPGNGDTSYNQKFKGRATLTVDKSSNTAYMQFSSLTSEDSAVFYCARGKYGNGAMDYWGQGTAVTVSS VL: DIVMTQSHKFMSTSVGDRVSITCRASQDVGTAVVWYQQKLGQSPKLLFDWASSRHTGVPDRFTGSGSGTDFTLTITDVQSEDLADYFCQQYSRQPLTFGAGTKLELK ?
3.76

Suppose we examine the binder xi30H9B8F9 hIgG1 (antibody, V domains shown, chimeric, hIgG1) VH: QVQLQQPGAELVKPGASVKMSCKTSGYTFTTNNMHWVKQTPGQGLEWIGAIYPGNGATAYNQKFKGKATLTADKSSSTAYMQLSSLTSEASAVYYCARGMYGHGAMDYWGQGTSVIVSS VL: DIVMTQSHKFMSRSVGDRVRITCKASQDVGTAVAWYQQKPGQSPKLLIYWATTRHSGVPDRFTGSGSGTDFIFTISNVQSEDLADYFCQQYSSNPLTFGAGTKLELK ; what EC50 value has been reported?
0.99
